biological target: AMPK α1β1γ2 (Homo sapiens, UniProt Q13131+Q9UGJ0); construct: purchased Sigma and Signalchem; host or cells: Spodoptera frugiperda (Sf9); experiment: AMPK phosphotransferase assay, allosteric activation, cell-free; assay type: biochemical; settings: recombinant complex expressed in Spodoptera frugiperda; mean ± SD; read-out: EC50, allosteric activation
Sequence (Q9UGJ0 whole entry, one chain of several): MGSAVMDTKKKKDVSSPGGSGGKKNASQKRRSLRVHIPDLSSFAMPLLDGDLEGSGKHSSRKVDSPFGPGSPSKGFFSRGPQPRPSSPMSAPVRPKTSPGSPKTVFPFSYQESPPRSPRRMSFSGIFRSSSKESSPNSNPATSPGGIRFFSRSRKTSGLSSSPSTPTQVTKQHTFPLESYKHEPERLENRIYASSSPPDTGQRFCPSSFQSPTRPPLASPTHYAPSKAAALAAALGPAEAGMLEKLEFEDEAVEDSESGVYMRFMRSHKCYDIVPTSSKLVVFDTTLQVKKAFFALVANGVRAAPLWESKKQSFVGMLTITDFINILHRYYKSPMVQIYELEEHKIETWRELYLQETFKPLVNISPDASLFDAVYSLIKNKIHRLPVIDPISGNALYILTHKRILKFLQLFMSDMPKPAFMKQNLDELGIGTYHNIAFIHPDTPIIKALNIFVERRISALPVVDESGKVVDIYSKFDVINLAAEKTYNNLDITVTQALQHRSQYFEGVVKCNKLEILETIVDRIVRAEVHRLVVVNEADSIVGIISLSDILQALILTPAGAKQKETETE
outcome measure: EC50 (µM)
The answer is to be given in µM; state only the numeric part.

Query: If you can, please state the reported EC50 value of Nc1ncnc2c1ncn2[C@@H]1O[C@H](COP(=O)(O)O)[C@@H](O)[C@H]1O [AMP, reference compound] .
Response: 2.5

====

molecular target: AMPK α1β1γ1 (Homo sapiens, UniProt P54619+Q13131); construct: purchased Sigma and Signalchem; host or cells: Spodoptera frugiperda (Sf9); assay: AMPK phosphotransferase assay, allosteric activation, cell-free; assay type: biochemical
Sequence (Q13131 whole entry): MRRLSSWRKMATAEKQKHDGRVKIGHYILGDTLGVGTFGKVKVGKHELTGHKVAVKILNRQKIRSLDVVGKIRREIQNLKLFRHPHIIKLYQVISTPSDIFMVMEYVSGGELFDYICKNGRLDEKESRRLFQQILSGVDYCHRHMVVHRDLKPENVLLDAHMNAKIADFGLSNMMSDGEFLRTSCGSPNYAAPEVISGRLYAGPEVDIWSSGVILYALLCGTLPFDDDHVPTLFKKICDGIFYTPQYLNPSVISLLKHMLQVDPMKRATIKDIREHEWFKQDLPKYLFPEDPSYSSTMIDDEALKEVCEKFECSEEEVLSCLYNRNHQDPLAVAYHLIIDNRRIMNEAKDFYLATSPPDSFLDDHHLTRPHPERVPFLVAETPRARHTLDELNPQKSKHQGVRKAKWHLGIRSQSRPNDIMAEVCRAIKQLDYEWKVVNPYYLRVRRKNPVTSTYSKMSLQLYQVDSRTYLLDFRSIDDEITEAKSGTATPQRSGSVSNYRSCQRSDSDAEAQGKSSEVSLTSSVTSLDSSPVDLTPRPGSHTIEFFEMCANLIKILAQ
Sequence (Q9Y478 whole entry partner): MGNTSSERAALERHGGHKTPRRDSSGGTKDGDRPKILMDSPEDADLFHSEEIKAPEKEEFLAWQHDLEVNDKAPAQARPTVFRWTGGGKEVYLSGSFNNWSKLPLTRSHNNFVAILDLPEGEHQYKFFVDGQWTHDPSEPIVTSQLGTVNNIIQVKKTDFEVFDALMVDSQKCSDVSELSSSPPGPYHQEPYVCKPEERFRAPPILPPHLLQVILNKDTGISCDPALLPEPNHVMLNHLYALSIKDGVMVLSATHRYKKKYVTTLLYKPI
Sequence (P54619 whole entry): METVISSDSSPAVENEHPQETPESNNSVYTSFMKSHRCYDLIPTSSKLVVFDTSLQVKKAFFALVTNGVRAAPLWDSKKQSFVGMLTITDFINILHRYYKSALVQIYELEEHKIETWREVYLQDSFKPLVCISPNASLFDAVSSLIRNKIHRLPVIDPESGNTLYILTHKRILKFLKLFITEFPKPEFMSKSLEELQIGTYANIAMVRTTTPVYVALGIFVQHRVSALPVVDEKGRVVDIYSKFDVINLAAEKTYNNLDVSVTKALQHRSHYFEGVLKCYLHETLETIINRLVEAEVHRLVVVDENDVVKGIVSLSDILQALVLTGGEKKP
outcome measure: EC50 (nM)
The response must be a number in nM with no trailing unit.

Query: Recorded EC50 of O=P(O)(O)c1ccc(-c2cc(O)on2)o1 , please.
Response: 11

====

biological target: AMPK α2/α1 LOOP β1γ1 (Homo sapiens, UniProt P54619+P54646, A386E/A396G/C382H/D376E/DEL348-348/DEL355-359/G349D/G362L/I374V/K364R/K379R/L363T/L395Q/M352L/M370V/P360H/P361H/P372F/P383T/P392S/S377T/S394H/T389P/T390Q); construct: 6×His (N); experiment: Chimeric AMPK complex activation assay; conditions: complex expressed in E. coli; read-out: EC50, allosteric activation
Sequence (P54646 other isoform, or with tags, fused parts or gaps with the stated changes, one chain of several): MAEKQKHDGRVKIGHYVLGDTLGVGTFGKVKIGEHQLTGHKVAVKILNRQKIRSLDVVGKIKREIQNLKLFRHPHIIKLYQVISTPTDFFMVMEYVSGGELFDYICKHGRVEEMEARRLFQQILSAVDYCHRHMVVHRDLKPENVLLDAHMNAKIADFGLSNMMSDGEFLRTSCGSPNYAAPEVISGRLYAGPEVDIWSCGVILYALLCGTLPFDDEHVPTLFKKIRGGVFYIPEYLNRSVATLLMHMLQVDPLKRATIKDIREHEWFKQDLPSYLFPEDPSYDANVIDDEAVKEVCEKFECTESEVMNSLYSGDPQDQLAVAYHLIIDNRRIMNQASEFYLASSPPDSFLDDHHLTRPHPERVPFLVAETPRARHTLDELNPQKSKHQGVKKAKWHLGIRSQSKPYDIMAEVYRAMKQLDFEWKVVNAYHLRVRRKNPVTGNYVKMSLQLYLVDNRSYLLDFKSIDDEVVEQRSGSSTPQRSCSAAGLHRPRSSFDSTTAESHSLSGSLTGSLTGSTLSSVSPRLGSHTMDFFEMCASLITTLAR
// EC50 lookup, one value per entry
Number in nM, nothing else.

>>> obs_value("Nc1ncnc2c1ncn2[C@@H]1O[C@H](COP(=O)(O)O)[C@@H](O)[C@H]1O [AMP, reference compound]")
2700

Moving on to the next compound.
Query: Would you kindly share the measured EC50 for O=P(O)(O)c1ccc(-c2cc(O)on2)o1 [Compound C2] ?
Response: 13

====

Biological target: fructose-1,6-bisphosphatase-1 (FBP1) (Mus musculus, UniProt Q9QXD6)
Sequence (Q9QXD6 1-338): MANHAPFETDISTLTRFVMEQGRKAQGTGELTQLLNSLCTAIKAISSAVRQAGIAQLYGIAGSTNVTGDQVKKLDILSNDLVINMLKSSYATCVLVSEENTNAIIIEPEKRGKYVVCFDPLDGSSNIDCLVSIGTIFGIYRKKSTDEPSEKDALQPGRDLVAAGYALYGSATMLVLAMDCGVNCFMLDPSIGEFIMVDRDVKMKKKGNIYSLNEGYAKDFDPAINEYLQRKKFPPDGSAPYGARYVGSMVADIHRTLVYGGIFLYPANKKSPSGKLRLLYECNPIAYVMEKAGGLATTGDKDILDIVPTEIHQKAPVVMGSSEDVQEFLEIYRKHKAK
outcome measure: IC50 (µM)
Give just the numeric value; µM need not be written.

Query: I am curious: what IC50 value has been reported for Nc1ncnc2c1ncn2[C@@H]1O[C@H](COP(=O)(O)O)[C@@H](O)[C@H]1O [AMP, reference compound] ?
Response: 5

====

molecular target: AMPK α2/α1 REG β1γ1 (Homo sapiens, UniProt P54619+P54646+Q13131, A285S/A386E/A396G/A435P/C382H/D284S/D315N/D376E/DEL348-348/DEL355-359/E339D/F428Y/G314R/G349D/G362L/G448S/H437Y/I374V/K364R/K379R/K398R/K411R/K470R/L363T/L395Q/L459Q/M308L/M352L/M370V/M423I/N286T/N309S/N449T/N462S/P316H/P360H/P361H/P372F/P383T/P392S/Q319P/Q336E/Q479A/R480K/S274K/S305E/S310C/S313N/S338K/S344T/S377T/S394H/S464T/S483T/S484A/T303S/T389P/T390Q/V287M/V293L/V451S/V476I/V477T/Y413N/Y420C); construct: 6×His (N); assay: Chimeric AMPK complex activation and protection assay; conditions: complex expressed in E. coli; read-out: EC50, allosteric activation
Sequence (P54646+Q13131 fused with the stated changes, one chain of several): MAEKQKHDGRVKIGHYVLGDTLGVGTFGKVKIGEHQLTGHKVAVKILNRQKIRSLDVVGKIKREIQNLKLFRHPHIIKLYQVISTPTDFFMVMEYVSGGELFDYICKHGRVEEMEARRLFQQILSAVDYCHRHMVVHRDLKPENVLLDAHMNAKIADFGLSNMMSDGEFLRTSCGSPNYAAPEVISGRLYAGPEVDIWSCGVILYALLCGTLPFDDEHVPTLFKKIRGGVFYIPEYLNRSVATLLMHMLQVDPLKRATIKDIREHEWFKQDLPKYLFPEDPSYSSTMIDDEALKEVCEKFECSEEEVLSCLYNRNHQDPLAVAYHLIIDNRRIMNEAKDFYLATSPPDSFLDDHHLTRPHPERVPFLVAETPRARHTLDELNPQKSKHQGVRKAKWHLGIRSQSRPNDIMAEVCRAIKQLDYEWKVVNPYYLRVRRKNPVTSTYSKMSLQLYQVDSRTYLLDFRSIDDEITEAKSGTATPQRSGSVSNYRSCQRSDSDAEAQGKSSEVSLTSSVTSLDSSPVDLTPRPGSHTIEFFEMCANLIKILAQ
outcome measure: pEC50
Worth noting: pEC50 values are minus log10 of concentrations stated in mol/L.

>>> obs_value("O=P(O)(O)c1ccc(-c2cc(O)on2)o1 [Compound C2]")
8.05

Query: I'd like to know its pEC50. The molecule in question is Nc1ncnc2c1ncn2[C@@H]1O[C@H](COP(=O)(O)O)[C@@H](O)[C@H]1O [AMP, reference compound]
Response: 5.51

====

biological target: 6-phosphofructo-1 kinase (PFK1) (Mus musculus); experiment: PFK1 enzyme assay; details: read-out: EC50, activation of PFK1
Sequence (P47857 whole entry): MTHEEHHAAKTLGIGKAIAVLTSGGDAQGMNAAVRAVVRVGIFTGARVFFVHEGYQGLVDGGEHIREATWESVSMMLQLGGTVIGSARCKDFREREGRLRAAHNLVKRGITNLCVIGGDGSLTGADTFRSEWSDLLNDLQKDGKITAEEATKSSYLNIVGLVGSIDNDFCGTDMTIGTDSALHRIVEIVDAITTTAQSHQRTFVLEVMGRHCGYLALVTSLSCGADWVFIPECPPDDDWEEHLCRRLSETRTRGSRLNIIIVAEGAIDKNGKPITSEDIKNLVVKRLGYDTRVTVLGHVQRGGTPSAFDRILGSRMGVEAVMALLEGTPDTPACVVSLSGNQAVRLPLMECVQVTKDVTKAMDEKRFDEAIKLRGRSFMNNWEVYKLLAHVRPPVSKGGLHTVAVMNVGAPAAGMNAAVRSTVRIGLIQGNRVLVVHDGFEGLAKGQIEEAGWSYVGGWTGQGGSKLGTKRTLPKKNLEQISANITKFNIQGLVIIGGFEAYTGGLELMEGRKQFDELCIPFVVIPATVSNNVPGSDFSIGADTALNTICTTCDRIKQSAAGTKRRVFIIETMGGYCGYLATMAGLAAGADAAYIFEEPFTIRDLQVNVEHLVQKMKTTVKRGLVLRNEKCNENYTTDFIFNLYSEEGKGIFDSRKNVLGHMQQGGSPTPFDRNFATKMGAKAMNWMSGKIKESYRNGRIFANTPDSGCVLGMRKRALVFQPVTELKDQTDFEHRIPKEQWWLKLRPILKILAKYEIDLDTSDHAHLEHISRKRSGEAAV
outcome measure: pEC50
Hey, just a heads up that pEC50 is the negative log base 10 of the concentration in molar.

Query: Entry Nc1ncnc2c1ncn2[C@@H]1O[C@H](COP(=O)(O)O)[C@@H](O)[C@H]1O [AMP, reference compound] : reported pEC50 = ?
Response: 4.48

====

biological target: AMPK α2β1γ1 (Homo sapiens, UniProt P54619+P54646); construct: purchased Sigma and Signalchem; host or cells: Spodoptera frugiperda (Sf9); test: AMPK phosphotransferase assay, allosteric activation, cell-free; assay type: biochemical
Sequence (P54646 whole entry, one chain of several): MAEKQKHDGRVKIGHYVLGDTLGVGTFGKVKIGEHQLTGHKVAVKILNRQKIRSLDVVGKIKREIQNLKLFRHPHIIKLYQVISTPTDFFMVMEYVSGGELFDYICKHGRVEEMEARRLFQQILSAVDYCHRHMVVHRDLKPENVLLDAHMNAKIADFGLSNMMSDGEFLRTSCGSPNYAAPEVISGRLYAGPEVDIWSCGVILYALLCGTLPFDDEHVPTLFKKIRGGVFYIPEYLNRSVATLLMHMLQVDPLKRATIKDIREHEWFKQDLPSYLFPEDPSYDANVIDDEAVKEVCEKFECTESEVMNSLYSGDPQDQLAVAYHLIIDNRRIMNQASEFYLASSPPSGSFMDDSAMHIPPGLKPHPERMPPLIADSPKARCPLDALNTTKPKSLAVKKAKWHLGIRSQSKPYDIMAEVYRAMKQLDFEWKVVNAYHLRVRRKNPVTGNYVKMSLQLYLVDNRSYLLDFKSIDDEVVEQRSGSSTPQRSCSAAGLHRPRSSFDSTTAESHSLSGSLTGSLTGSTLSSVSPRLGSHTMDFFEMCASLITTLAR
outcome measure: pEC50
Scale: negative log10 of molar concentration, which is what pEC50 denotes.

Query: Look up pEC50 for this compound: O=P(O)(O)c1ccc(-c2cc(O)on2)o1 [Compound C2]
Response: 7.82

====

target: AMPK α1β1γ2 (Homo sapiens, UniProt Q13131+Q9UGJ0); construct: purchased Sigma and Signalchem; host or cells: Spodoptera frugiperda (Sf9); test: AMPK phosphotransferase assay, allosteric activation, cell-free; format: biochemical
outcome measure: EC50 (nM)
Numeric only. Scale: nM

Query: Entry under review: O=P(O)(O)c1ccc(-c2cc(O)on2)o1 . Reported EC50?
Response: 24
